Measured Cmax by item
Assay: Human pharmacokinetic study, Example 5 Arm I (single dose, replicated crossover)
Format: in vivo
Conditions: both sexes, human, in vivo, oral, 3 film-coated Formulation C5-12 tablets, single dose, non-fasting, Regimen A (C5-12): three film-coated Formulation C5-12 tablets, N = 172, read-out: Cmax, geometric mean
measuredEndpoint: Cmax (ng/mL)

compound=COc1c(-c2ccc3cc(NS(C)(=O)=O)ccc3c2)cc(-n2ccc(=O)[nH]c2=O)cc1C(C)(C)C recordednumber=1060
compound="CC(C)c1nc(CN(C)C(=O)N[C@H](C(=O)N[C@@H](Cc2ccccc2)C[C@H](O)[C@H](Cc2ccccc2)NC(=O)OCc2cncs2)C(C)C)cs1 [Compound 3, reference compound]" recordednumber=1130

----------
Assay: Human pharmacokinetic study, Example 4 Arm III (14-day multiple dose, steady state)
Format: in vivo
Settings: human, in vivo, oral, 3 Formulation C5-12 tablets daily, three Formulation C5-12 tablets daily for 14 days, non-fasting, Day 14, N = 14, read-out: C24, geometric mean
Measured concentration at 24 h by item
measuredEndpoint: concentration at 24 h (ng/mL)

molecule="CC(C)c1nc(CN(C)C(=O)N[C@H](C(=O)N[C@@H](Cc2ccccc2)C[C@H](O)[C@H](Cc2ccccc2)NC(=O)OCc2cncs2)C(C)C)cs1 [Compound 3, reference compound]" measuredendpoint="concentration at 24 h" recordednumber=40
molecule=COC(=O)N[C@H](C(=O)N1CCC[C@H]1C(=O)Nc1ccc([C@@H]2CC[C@@H](c3ccc(NC(=O)[C@@H]4CCCN4C(=O)[C@@H](NC(=O)OC)C(C)C)cc3)N2c2ccc(C(C)(C)C)cc2)cc1)C(C)C measuredendpoint="concentration at 24 h" recordednumber=40.2
molecule=COc1c(-c2ccc3cc(NS(C)(=O)=O)ccc3c2)cc(-n2ccc(=O)[nH]c2=O)cc1C(C)(C)C measuredendpoint="concentration at 24 h" recordednumber=172
molecule=Cc1cnc(C(=O)N[C@H]2CCCCC/C=C\[C@@H]3C[C@@]3(C(=O)NS(=O)(=O)C3CC3)NC(=O)[C@@H]3C[C@@H](Oc4nc5ccccc5c5ccccc45)CN3C2=O)cn1 measuredendpoint="concentration at 24 h" recordednumber=33.7

----------
Assay: Human pharmacokinetic study, Example 4 Arm II (single dose, crossover)
Type: in vivo
Conditions: both sexes, human, in vivo; Example 4 Arm II, single dose, non-fasting; Regimen A (reference regimen): two Triple Tablets + one Single Tablet morning, one Single Tablet evening; N = 13; read-out: AUC∞, geometric mean
measuredEndpoint: AUC(0-inf) (ng·h/mL)

molecule="CC(C)c1nc(CN(C)C(=O)N[C@H](C(=O)N[C@@H](Cc2ccccc2)C[C@H](O)[C@H](Cc2ccccc2)NC(=O)OCc2cncs2)C(C)C)cs1 [Compound 3, reference compound]" recordednumber=7900

----------
Test: Human pharmacokinetic study, Example 4 Arm II (single dose, crossover)
Format: in vivo
Conditions: both sexes, human, blood, oral; Example 4 Arm II, single dose, non-fasting; Regimen A (reference regimen): two Triple Tablets + one Single Tablet morning, one Single Tablet evening; N = 13; read-out: AUCt, geometric mean
measuredEndpoint: AUC(0-t) (ng·h/mL)

molecule="COc1c(-c2ccc3cc(NS(C)(=O)=O)ccc3c2)cc(-n2ccc(=O)[nH]c2=O)cc1C(C)(C)C [Compound 4]" measuredendpoint=AUC(0-t) readingunit=ng·h/mL recordednumber=18200
molecule="Cc1cnc(C(=O)N[C@H]2CCCCC/C=C\\[C@@H]3C[C@@]3(C(=O)NS(=O)(=O)C3CC3)NC(=O)[C@@H]3C[C@@H](Oc4nc5ccccc5c5ccccc45)CN3C2=O)cn1 [Compound 1]" measuredendpoint=AUC(0-t) readingunit=ng·h/mL recordednumber=4670

----------
Assay: Human pharmacokinetic study, Example 4 Arm II (single dose, crossover)
Assay type: in vivo
Settings: both sexes, human, blood, oral, 3 Formulation C5-12 tablets, Example 4 Arm II, single dose, non-fasting; Regimen E (C5-12): three Formulation C5-12 tablets in the morning; N = 13; read-out: C24, geometric mean
Description: Formulation C5-12 and a second formulation were tested in Arm II of the study. Adult male and female subjects (N=30 for combined Arm I and Arm II studies) in general good health were selected to participate in the study according to the selection criteria. Subjects meeting the selection criteria were randomly assigned to one of the Regimen sequences as shown below in Table 4-A. Study drug was administered as provided below in Table 4-B. […]
measuredEndpoint: concentration at 24 h (ng/mL)

molecule="CC(C)c1nc(CN(C)C(=O)N[C@H](C(=O)N[C@@H](Cc2ccccc2)C[C@H](O)[C@H](Cc2ccccc2)NC(=O)OCc2cncs2)C(C)C)cs1 [Compound 3, reference compound]" recordednumber=38.8

----------
Assay: Human pharmacokinetic study, Example 5 Arm I (single dose, replicated crossover)
Format: in vivo
Conditions: both sexes, human, blood, oral, 3 film-coated Formulation C5-12 tablets, single dose, non-fasting, Regimen A (C5-12): three film-coated Formulation C5-12 tablets, N = 172, read-out: Cmax, geometric mean
measuredEndpoint: Cmax (ng/mL)

compoundstructure=Cc1cnc(C(=O)N[C@H]2CCCCC/C=C\[C@@H]3C[C@@]3(C(=O)NS(=O)(=O)C3CC3)NC(=O)[C@@H]3C[C@@H](Oc4nc5ccccc5c5ccccc45)CN3C2=O)cn1 recordednumber=618

----------
Assay: Human pharmacokinetic study, Example 5 Arm II (multiple dose, crossover)
Assay type: in vivo
Settings: both sexes, human, blood, oral, 3 film-coated Formulation C5-12 tablets daily; Example 5 Arm II, multiple dose 14 days, non-fasting; Regimen A (C5-12): three film-coated Formulation C5-12 tablets daily; N = 63; read-out: Cmax, geometric mean
measuredEndpoint: Cmax (ng/mL)

compound=Cc1cnc(C(=O)N[C@H]2CCCCC/C=C\[C@@H]3C[C@@]3(C(=O)NS(=O)(=O)C3CC3)NC(=O)[C@@H]3C[C@@H](Oc4nc5ccccc5c5ccccc45)CN3C2=O)cn1 measuredendpoint=Cmax recordednumber=1500
compound="CC(C)c1nc(CN(C)C(=O)N[C@H](C(=O)N[C@@H](Cc2ccccc2)C[C@H](O)[C@H](Cc2ccccc2)NC(=O)OCc2cncs2)C(C)C)cs1 [Compound 3, reference compound]" measuredendpoint=Cmax recordednumber=1340
compound=COc1c(-c2ccc3cc(NS(C)(=O)=O)ccc3c2)cc(-n2ccc(=O)[nH]c2=O)cc1C(C)(C)C measuredendpoint=Cmax recordednumber=799

----------
Assay: Human pharmacokinetic study, Example 4 Arm II (single dose, crossover)
Assay type: in vivo
Details: both sexes, human, in vivo, oral, 3 Formulation C5-12 tablets; Example 4 Arm II, single dose, non-fasting; Regimen E (C5-12): three Formulation C5-12 tablets in the morning; N = 13; read-out: C24, geometric mean
measuredEndpoint: concentration at 24 h (ng/mL)

compoundstructure=Cc1cnc(C(=O)N[C@H]2CCCCC/C=C\[C@@H]3C[C@@]3(C(=O)NS(=O)(=O)C3CC3)NC(=O)[C@@H]3C[C@@H](Oc4nc5ccccc5c5ccccc45)CN3C2=O)cn1 recordednumber=24.5
compoundstructure=COc1c(-c2ccc3cc(NS(C)(=O)=O)ccc3c2)cc(-n2ccc(=O)[nH]c2=O)cc1C(C)(C)C recordednumber=290

----------
Test: Human pharmacokinetic study, Example 4 Arm II (single dose, crossover)
Format: in vivo
Settings: both sexes, human, in vivo, oral, 3 Formulation C5-12 tablets; Example 4 Arm II, single dose, non-fasting; Regimen E (C5-12): three Formulation C5-12 tablets in the morning; N = 13; read-out: Cmax, geometric mean
measuredEndpoint: Cmax (µg/mL)

molecule="COc1c(-c2ccc3cc(NS(C)(=O)=O)ccc3c2)cc(-n2ccc(=O)[nH]c2=O)cc1C(C)(C)C [Compound 4]" readingunit=µg/mL recordednumber=1.35
molecule="Cc1cnc(C(=O)N[C@H]2CCCCC/C=C\\[C@@H]3C[C@@]3(C(=O)NS(=O)(=O)C3CC3)NC(=O)[C@@H]3C[C@@H](Oc4nc5ccccc5c5ccccc45)CN3C2=O)cn1 [Compound 1]" readingunit=µg/mL recordednumber=0.647

----------
Test: Human pharmacokinetic study, Example 4 Arm II (single dose, crossover)
Type: in vivo
Settings: both sexes, human, in vivo, oral; Example 4 Arm II, single dose, non-fasting; Regimen A (reference regimen): two Triple Tablets + one Single Tablet morning, one Single Tablet evening; N = 13; read-out: C24, geometric mean
Measured concentration at 24 h by item
measuredEndpoint: concentration at 24 h (ng/mL)

compound="Cc1cnc(C(=O)N[C@H]2CCCCC/C=C\\[C@@H]3C[C@@]3(C(=O)NS(=O)(=O)C3CC3)NC(=O)[C@@H]3C[C@@H](Oc4nc5ccccc5c5ccccc45)CN3C2=O)cn1 [Compound 1]" recordednumber=24.3
compound="COc1c(-c2ccc3cc(NS(C)(=O)=O)ccc3c2)cc(-n2ccc(=O)[nH]c2=O)cc1C(C)(C)C [Compound 4]" recordednumber=361

----------
Assay: Human pharmacokinetic study, Example 5 Arm I (single dose, replicated crossover)
Assay type: in vivo
Conditions: both sexes, human, in vivo, oral, 3 film-coated Formulation C5-12 tablets, single dose, non-fasting, Regimen A (C5-12): three film-coated Formulation C5-12 tablets, N = 172, read-out: Tmax, first value (geometric mean)
measuredEndpoint: Tmax (h)

compoundstructure=Cc1cnc(C(=O)N[C@H]2CCCCC/C=C\[C@@H]3C[C@@]3(C(=O)NS(=O)(=O)C3CC3)NC(=O)[C@@H]3C[C@@H](Oc4nc5ccccc5c5ccccc45)CN3C2=O)cn1 measuredendpoint=Tmax readingunit=h recordednumber=5

Data origin, for the record: patent US10105365B2
